// provenance: patent US7556795B2

PROCEDURE SUMMARY: Radiochemical purity (RCP) of 99mTc labeled peptide by HPLC
Type: physicochemical
CONDITION CONTEXT: 99mTc complex; 4 μg ligand, 300 μL EtOH, ~40 mCi 99mTcO4-, prepared at room temperature; average of multiple experiments
MEASURED ENDPOINT: Percent RCP at 6 hours (%)

- COMPOUND: "CSCCC(NC(=O)[C@H](CC(C)C)NC(=O)[C@H](Cc1cnc[nH]1)NC(=O)CNC(=O)[C@@H](NC(=O)[C@H](C)NC(=O)[C@H](Cc1c[nH]c2ccccc12)NC(=O)[C@H](CCC(N)=O)NC(=O)CCCCNC(=O)CNC(=O)[C@H](CS)NC(=O)[C@H](CO)NC(=O)CN(C)C)C(C)C)C(N)=O (stereo partly shown) [Compound 1]"
  RESULT UNIT: "%"
  QUANTITATIVE RESULT: 88.1
- COMPOUND: "CSCC[C@H](NC(=O)[C@H](CC(C)C)NC(=O)[C@H](Cc1cnc[nH]1)NC(=O)CNC(=O)[C@@H](NC(=O)[C@H](C)NC(=O)[C@H](Cc1c[nH]c2ccccc12)NC(=O)[C@H](CCC(N)=O)NC(=O)CCCCNC(=O)CNC(=O)[C@H](CS)NC(=O)[C@H](CO)NC(=O)CN)C(C)C)C(N)=O [Compound 3]"
  RESULT UNIT: "%"
  QUANTITATIVE RESULT: 82.4
- COMPOUND: "CSCC[C@H](NC(=O)[C@H](CC(C)C)NC(=O)[C@H](Cc1cnc[nH]1)NC(=O)CNC(=O)[C@@H](NC(=O)[C@H](C)NC(=O)[C@H](Cc1c[nH]c2ccccc12)NC(=O)[C@H](CCC(N)=O)NC(=O)CCCCNC(=O)CNC(=O)[C@H](CS)NC(=O)CNC(=O)CN)C(C)C)C(N)=O [Compound 4]"
  RESULT UNIT: "%"
  QUANTITATIVE RESULT: 83.3
- COMPOUND: "CSCC[C@H](NC(=O)[C@H](CC(C)C)NC(=O)[C@H](Cc1cnc[nH]1)NC(=O)CNC(=O)[C@@H](NC(=O)[C@H](C)NC(=O)[C@H](Cc1c[nH]c2ccccc12)NC(=O)[C@H](CCC(N)=O)NC(=O)CCCCNC(=O)CNC(=O)[C@H](CS)NC(=O)CNC(=O)CN(C)C)C(C)C)C(N)=O [Compound 2]"
  RESULT UNIT: "%"
  QUANTITATIVE RESULT: 78.7
